The reported measurements were obtained from patent US11274124B2.

# Tested on: MES SA (uterine sarcoma cell line)
# test-details: In vitro cytotoxicity assay (CellTiter-Glo, 72 hours), MES SA
# Assay type: cell-based
# recorded-conditions: Homo sapiens, MES-SA, 72 h, read-out: MES SA, IC50 Value in nM
measurement-name: IC50 (nM)
Your answer should be a plain number; it is taken to be in nM.

[
  {
    "line-notation": "CC(=O)O[C@H](C[C@H](C(C)C)N(C)C(=O)[C@@H](NC(=O)[C@H]1CCCCN1C)C(C)C)c1nc(C(=O)N[C@@H](Cc2ccccc2)C[C@H](C)C(=O)O)c(C)s1",
    "IC50 [nM]": 0.836
  }
]

Consider the record given below.
IN: Any idea what IC50 was measured for COC(=O)[C@H](C[C@H](Cc1ccccc1)NC(=O)c1csc([C@@H](C[C@H](C(C)C)N(C)C(=O)[C@@H](NC(=O)[C@H]2CCCCN2C)C(C)C)OC(C)=O)n1)N(C)C ?
OUT: 0.099
